- study.system: T1, HuCD86-HuIgG1 (fusion protein of the extracellular part of human CD86 and human Fc gamma 1, R&D Systems Cat … (human, UniProt P42081 24-247))
- T1 construct: extracellular domain; bought; also called CD86-IgG1; CD86-Ig; not shown: human Fc gamma 1
- T1 sequence (looked up): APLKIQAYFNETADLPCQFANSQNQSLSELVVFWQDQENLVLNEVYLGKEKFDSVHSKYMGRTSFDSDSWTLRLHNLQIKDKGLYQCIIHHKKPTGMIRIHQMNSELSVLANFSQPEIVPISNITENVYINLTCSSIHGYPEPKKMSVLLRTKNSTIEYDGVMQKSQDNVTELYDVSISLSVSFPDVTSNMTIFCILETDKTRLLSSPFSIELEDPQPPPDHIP
- assay.method.text: ELISA, periplasmic extract on coated antigen, anti-myc detection
metric.name: OD (OD)
Answers are plain numbers, in OD.

In the examples that follow, each entry is paired with its recorded OD.
binder	OD / OD
CD8086PMP2B10 (VHH, not shown: C-terminal c-myc tag and His6 tag) VHH: EVQLVESGGGLVQAGGSLRLSCTGSQISFSDNTMNWYRQVPGKQRELVASLSIFGATGYADSVKGRFTISRDIAGNTVYLQMNDLKIEDTAVYYCKLGPVRRSRLEYWGQGTQVTVSS	1.73
CD8086PMP1A3 (VHH, not shown: C-terminal c-myc tag and His6 tag) VHH: EVQLVESGGGLVQAGGSLRLSCAASGPTSSSYSMGWFRQAPGKEREFVAAINWSHGVTYYADSVKGRFTISRDIAKNTVYLQMNSLKPEDTAVYYCAANEYGLGSSIYAYKHWGQGTQVTVSS	0.053
CD8086PMP2A7 (VHH, not shown: C-terminal c-myc tag and His6 tag) VHH: EVQLVESGGGLVQAGGSLRLSCAASGRTFSSKAMGWFRQAPGKERDFVAAITWSGGSTYYADHVKGRFTISRDNAKNTVYLQMNSLKPEDTAVYYCATNPYGLGQVGYDYWGQGTQVTVSS	0.042

Below are 4 binders. Give each one its OD.
1. CD8086PMP2E6 (VHH, not shown: C-terminal c-myc tag and His6 tag) VHH: EVQLVESGGGLVQAGGSLRLSCAASGSIFSIYDMGWYRQAPGKQRVLVATITSGGSTNYADSVKGRFTISRDDAKNTVYLQMNSLKPEDTAVYYCNAIAHEEGVYRWDFWGQGTQVTVSS
2. CD8086PMP2F5 (VHH, not shown: C-terminal c-myc tag and His6 tag) VHH: EVQLVKSGGGLVQAGGSLRLSCAASGSIFSIYDMGWYRQAPGKQRELVAAITSGGSTNYADSVKGRFTISRDNAKNTVYLQMNSLKPEDTAVYYCNAIAYEEGVYRWDFWGQGTQVTVSS
3. CD8086PMP1D1 (VHH, not shown: C-terminal c-myc tag and His6 tag) VHH: EVQLVESGGGLVQAGGSLRLSCAASGRTFSSKAMGWFRQAPGKERDFVAAITWSGGSTYYADHVKGRFTISRDNAKNTVYLQMNSLKPEDTAVYYCATNPYGLGQVGYDYWGQGTQVTVSS
4. CD8086PMP1B2 (VHH, not shown: C-terminal c-myc tag and His6 tag) VHH: EVQLVESGGGLVQAGGSLRLSCAASGRSFSSYVMGWFRQAPGKEREFVAAIIGRDIGTYYADSVKGRFTISRDNAKTTVYLQMNALKPEDTAVYYCAADSRSRLSGIRSAYDYWGQGTVTVSS

1. 0.538
2. 0.774
3. 0.043
4. 0.038
